system: Slc25a29; test: Effect on Slc25a29 mRNA expression in Sprague-Dawley rat liver at 15 mg/kg, ip administered twice daily every 12 hrs for 8 days by microarray analysis relative to control; type: ADME, organism-based; design: dose 15 mg/kg, route intraperitoneal; settings: read-out: FC

>  <COMPOUND>
COc1ccc2c3c1O[C@H]1C(=O)CC[C@@]4(O)[C@@H](C2)N(C)CC[C@]314.Cl [OXYCODONE HYDROCHLORIDE]

>  <fold induction at 8 days>
1.5

$$$$

* * *

test system: Abca8b; test: Effect on Abca8b mRNA expression in Sprague-Dawley rat liver at 15 mg/kg, ip administered twice daily every 12 hrs for 8 days by microarray analysis relative to control; assay type: ADME, organism-based; design: dose 15 mg/kg, route intraperitoneal; conditions: read-out: FC
PROPERTY: fold induction at 8 days

>  <COMPOUND>
COc1ccc2c3c1O[C@H]1C(=O)CC[C@@]4(O)[C@@H](C2)N(C)CC[C@]314.Cl [OXYCODONE HYDROCHLORIDE]

>  <RECORDED_NUMBER>
2.3

$$$$

src = ChEMBL document CHEMBL3526135
